Reported values of A450nm, 20 nM mAb for individual entries
target_desc: T1, Biotin Y46,48,51(SO3) PSGL-1(42-62) peptide (human, sulfotyrosine at Y46, Y48 and Y51; C-terminal Lys-biotin)
T1 construct: also called fully sulfated N-terminal PSGL-1 peptide
T1 peptide: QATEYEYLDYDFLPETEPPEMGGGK
protocol_summary: ELISA, immobilized biotin peptide
Protocol: A typical ELISA was performed by coating high binding half-well plates (Corning Cat. #3690) with 3 ug/mL/25 ul per well of biotinylated N-terminal PSGL-1 peptides, which incorporated residues 42 to 62 of the protein, in PBS, pH 7.4, overnight at 4° C. The peptide was unmodified or contained sulfated tyrosine at all 3 tyrosine positions (46, 48, and 51) or at one position (tyr51) (Table 7). PSGL-1 protein or peptide served as a positive control. […]
readout: A450nm, 20 nM mAb (A450nm)

binder	reading
03B01 (antibody, IgG4, V domains shown) VH: QMQLVQSGAEVKKPGASVKVSCRASGYRFSTYAISWVRQAPGQGLEWIGWISTHHGNTKYAQKFQDRVTMTADASTSIAYMELRSLRSDDTAVYYCAAAIGNYWGQGTLVTVSS VL: EIVLTQSPAILSVSPGERASLSCRASQSVSSKLAWYQQKPGQAPRLLIYGASTRATGIPPRFSGSGSGTDFTLTISSLEPEDFAVYYCQQRSNWPLTFGGGTKVEIK	2.62
09D04 (antibody, IgG4, V domains shown) VH: QVQLQQSGGGLVQPGGSLTLSCVGSGFDFRSYAMSWVRQAPGKGLEWVSGINNSGSKTYYADFVKGRFSVSRDNSKNIVWLRMRSLRAEDTAVYYCARRTFGPPHAWGQGTMVTVSS VL: DVVMTQSPLSLPVTPGEPASISCRSSQSLLHSNGYTYLEWYLHKPGQSPQLLIYLGSNRASGVPDRFSGSGSGTDFTLKISRVEAEDVGVYYCMHSLHIPFTFGPGTKVDIK	2.63
09C10 (antibody, V domains shown) VH: EVKLLESGGGLIQPGGSLRLSCAASGFTVSNNYVTWVRQAPGKGLELVSSIYSGGGTYYADSVKGRFTISRDNSKNTVYLQMNSLRADDTAVYYCARNVPVTNFGYWGQGTLVTVSS VL: DIVMTQSPLSLPVTLGQPASISCRSSQSLVYRDGNTYLNWFQQRPGQSPRRLIYKVSNRDSGVPDRFSGSGSGTDFTLKISRVEAEDVGVYYCMQLTHWPPGFAQGTKLEIK	2.77
06A07 (antibody, IgG4, V domains shown) VH: QVQLVQSGPELKNPGASVKVSCKASGYSFTNFYINWVRQAPGRGLEWVGWISPNNGNTHYARNLQGRVTMTTDTSTNTAYLELKNLRSDDTAIYFCGRSVSMGYWGQGTLVTVSS VL: LPVLTQPPSVSKGLRQTATLTCTGNSKNVGNQGAAWLQQHQGQPPKLLSYRNNNRPSGISERFSASRSGNTASLTITGLQPEDEADYYCSAWDSSLSAQVFGGGTKLTVL	2.7
05D01 (antibody, V domains shown) VH: QVTLRESGGALVQPGGSLRLSCAASGFPLRSNAMTWVRQAPGKGLEWVSDIRGNGASTYYADSVKGRFTISRDDSNNILFLQMNSLRAEDTAVYYCVGHGSSSYWGQGTLVTVSS VL: DVVMTQSPLSLPVTLGQPASISCRSSQSLVYRDGNIYLNWFQQRPGQSPRRLIYKVSNRDSGVPDRFSGSGSGTDFTLKISRVEAEDVGVYYCMQLTHWPPGFAQGTKLEIK	2.85
